# Procedure text: Cytotoxicity on SH-SY5Y cells (MTT)
# Assay type: cell-based
# Condition label: human, undifferentiated SH-SY5Y neuroblastoma cells
Endpoint: IC50 at 48 h

{"Molecule": "O=C1CCC(c2c(O)cc(O)c3c2OC(c2ccc(O)cc2)CC3=O)N1 (centres unmarked)", "Endpoint": "IC50 at 48 h", "Value observed": "> 150 µM"}
{"Molecule": "O=C1CCC(c2c(O)cc3c(c2O)C(=O)CC(c2ccc(O)cc2)O3)N1 (centres unmarked)", "Endpoint": "IC50 at 48 h", "Value observed": "> 150 µM"}

---

# Procedure text: logP determination by titrations in the presence of n-octanol; logD calculated from logP and pKa
# Format: physicochemical
# Condition label: n-octanol/water; lipophilicity of neutral species

{"Compound": "O=C1CCC(c2c(O)cc(O)c3c2OC(c2ccc(O)cc2)CC3=O)N1 (centres unmarked)", "logP": 2.39}
{"Compound": "O=C1CCC(c2c(O)cc3c(c2O)C(=O)CC(c2ccc(O)cc2)O3)N1 (centres unmarked)", "logP": 2.52}

---

# Procedure text: pKa determination by aqueous titrations
# Type: physicochemical
# Condition label: aqueous solution, phenolic hydroxy group; second value in cell; read-out: pKa (second) (converted)
The following compounds are listed with their measured pKa values.
Endpoint: pKa

{"Compound": "O=C1CCC(c2c(O)cc3c(c2O)C(=O)CC(c2ccc(O)cc2)O3)N1 (centres unmarked) [2a–d, 6-(2”-pyrrolidinone-5”-yl)naringenin]", "Value observed": 9.47}
{"Compound": "O=C1CCC(c2c(O)cc(O)c3c2OC(c2ccc(O)cc2)CC3=O)N1 (centres unmarked) [3a–d, 8-(2”-pyrrolidinone-5”-yl)naringenin]", "Value observed": 9.54}

---

The following molecules are listed with their measured logD values.
# Procedure text: logP determination by titrations in the presence of n-octanol; logD calculated from logP and pKa
# Format: physicochemical
# Condition label: n-octanol/water; pH 7.4; calculated from logP and pKa by Henderson–Hasselbalch equation; read-out: log D7.4
Endpoint: logD

{"Molecule": "O=C1CCC(c2c(O)cc3c(c2O)C(=O)CC(c2ccc(O)cc2)O3)N1 (centres unmarked)", "Value observed": 1.74}
{"Molecule": "O=C1CCC(c2c(O)cc(O)c3c2OC(c2ccc(O)cc2)CC3=O)N1 (centres unmarked)", "Value observed": 1.51}
